# assaySummary: mn = molality of the nth substance listed, in mol/kg
# testSettings: 283.15 K; 101 kPa; Liquid; Alternating current cell with electrodes; m1 = 0.001
metric: electrical conductivity (S/m)
Numeric only. Scale: S/m

Known electrical conductivity results, listed for orientation:
>>> recordednumber("O=S(=O)([O-])[O-].[Na+].[Na+] [sodium sulfate] + O")
0.0168
>>> recordednumber("[Cl-].[K+] [potassium chloride] + O")
0.0105
>>> recordednumber("[Na+].[OH-] [sodium hydroxide] + O")
0.0192

Attention now shifts to the item below.
Prompt line: # electrical conductivity lookup, item O=C([O-])O.[K+] [potassium bicarbonate] + O
Response line: 0.00834

This collection of values is drawn from the NIST ThermoML archive (doi:10.1021/je101012n).
